Can you tell me protein stability index for the items I'm about to list?
test system: Saccharomyces cerevisiae; assay: protein stability index of tFT-peptide fusion (C-terminal peptide) (PSI (0-1 scale)); higher = more stable (slower turnover); details: genetic background: wild type; temperature: 30 C
Answers are plain numbers.

LESTHDKAIAGK [MNN2 C-terminal 12 aa]	0.684
EGSGEFVGEMEI [MRS6 C-terminal 12 aa]	0.714
SFKAYVGLPTTG [PIC2 C-terminal 12 aa]	0.693
KRRNWRRTKMNI [RPL39 C-terminal 12 aa]	0.705
STQHKSTTSFTQ [TGL4 C-terminal 12 aa]	0.655
DATRREVMTERK [LSM2 C-terminal 12 aa]	0.688

Return reported protein stability index values for all items listed beneath this line.
1. HNVCGRAFSLPL [HSL7 C-terminal 12 aa]
2. SMKPFKRRKPFF [PRP16 C-terminal 12 aa]
3. HLQRCLSRGARR [SGF11 C-terminal 12 aa]
4. VFLELKKAQRWA [API2 C-terminal 12 aa]

1: 0.677; 2: 0.72; 3: 0.759; 4: 0.686

Return reported protein stability index values for all items listed beneath this line.
1. IGRENENENEDD [POP5 C-terminal 12 aa]
2. ASFVEVNAEVFL [FRS1 C-terminal 12 aa]

0.704
0.711
